- target.of.assay: Left-right determination factor 2 (Homo sapiens) (UniProt O00292)
- Sequence (O00292 whole entry, looked up): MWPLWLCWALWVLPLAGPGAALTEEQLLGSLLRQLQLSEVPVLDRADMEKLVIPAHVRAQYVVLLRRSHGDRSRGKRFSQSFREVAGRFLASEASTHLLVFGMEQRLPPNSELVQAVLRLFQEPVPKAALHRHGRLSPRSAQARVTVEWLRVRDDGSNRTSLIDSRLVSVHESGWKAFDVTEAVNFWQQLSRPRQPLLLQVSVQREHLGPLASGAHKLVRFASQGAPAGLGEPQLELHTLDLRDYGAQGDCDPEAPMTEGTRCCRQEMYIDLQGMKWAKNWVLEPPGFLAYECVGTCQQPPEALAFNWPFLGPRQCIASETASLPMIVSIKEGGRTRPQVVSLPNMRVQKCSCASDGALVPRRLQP
- protocol.text: LEFTY2 binders on small-molecule microarrays, primary screen, biochemical, small-molecule microarray, 635 nm fluorescence scan (AID 1110)
- assay.context: LEFTY2 binding, higher = more signal
Each record's class is read off its composite z-score using these ranges: lower segment: < 0.006; middle segment: ≥ 0.006 and < 0.5; upper segment: ≥ 0.5

[[record]]
molecule = "C=C(COC)/C(=C/C[C@H](OC(=O)c1ccncc1)c1cccc(OCCO)c1)c1cnc2ccccc2c1"
class = "upper segment"

[[record]]
molecule = "COC(=O)[C@@]1(Cc2ccc(F)cc2)[C@H]2c3cc(C(=O)N(C)C)n(CCN4CCOCC4)c3C[C@H]2CN1C(=O)c1ccccc1"
class = "middle segment"

[[record]]
molecule = "CCOC(=O)C1=CC[C@@H](c2ccccc2)N(S(=O)(=O)C[Si](C)(C)C)[C@H]1c1ccccc1"
class = "upper segment"

[[record]]
molecule = "N#Cc1ccc(C(O)C2C=CC3C(=O)N(c4ccccc4)C(=O)C3N2Nc2ccc([N+](=O)[O-])cc2)cc1 (stereo unspecified)"
class = "lower segment"

[[record]]
molecule = "O=C1C2C=CC(C(O)c3cccs3)N(Nc3ccccc3)C2C(=O)N1c1ccccc1 (stereo unspecified)"
class = "middle segment"

[[record]]
molecule = "C[N+](C)(C)CCCCCCNC(=O)[C@@H]1C[C@@H]2C(=O)N[C@@H](Cc3ccccc3)C(=O)N2[C@@H]1c1ccc(O)cc1"
class = "upper segment"

[[record]]
molecule = "Cc1ccc(F)cc1S(=O)(=O)N[C@@H]1CCN(Cc2ccc3[nH]ccc3c2)C1"
class = "middle segment"

[[record]]
molecule = "COCCCN1C(=O)[C@@]2(Cc3ccccc31)c1ccccc1C(=O)N(Cc1ccccc1OC)[C@H]2c1ccc(CO)cc1"
class = "lower segment"

[[record]]
molecule = "[N-]=[N+]=Nc1ccccc1[C@@H]1OC(c2ccc(OCCCO)cc2)=N[C@]1(Cc1ccccc1)C(N)=O"
class = "lower segment"

[[record]]
molecule = "COc1ccc(NN2C(C(O)c3ccc(OC)cc3)C=CC3C(=O)N(C4CCCCC4)C(=O)C32)cc1 (stereo unspecified)"
class = "middle segment"

[[record]]
molecule = "NC(=O)N1C(=O)C2C(C1=O)C1C=C(CCCO)C2C(c2ccc(CN3CCCC3)cc2)N1Cc1cccc(OC(F)(F)F)c1 (stereo unspecified)"
class = "upper segment"

[[record]]
molecule = "CC(C)(C)OC(=O)CC[C@]1(C(=O)N2CCOCC2)N=C(c2ccc(OCCCO)cc2)O[C@H]1c1ccccc1CN=[N+]=[N-]"
class = "lower segment"

[[record]]
molecule = "CC=CC(O)C1C=CC2C(=O)N(C)C(=O)C2N1NC(=O)OC(C)(C)C (stereo unspecified)"
class = "middle segment"

[[record]]
molecule = "C=CCC(OC(C)=O)[C@@H]1[C@@H](N(Cc2ccc(-c3cccc(C(F)(F)F)c3)o2)C(=O)Cc2ccc(F)cc2)c2cc(OCCCO)ccc2N1C(=O)c1ccc2ccccc2c1 (stereo partly specified)"
class = "lower segment"

[[record]]
molecule = "CCOC(=O)C1=CCC(c2cc3ccccc3[nH]2)N(S(=O)(=O)c2ccccc2[N+](=O)[O-])C1 (stereo unspecified)"
class = "lower segment"

[[record]]
molecule = "CN1C=C(C(=O)OCCS(C)(=O)=O)C(C(=O)OCCS(C)(=O)=O)=CC(CCCO)=CC1c1ccc(CN2CCCC2)cc1 (stereo unspecified)"
class = "upper segment"


###

- protocol.text: S. cerevisiae RM11-1a growth modifiers, primary screen, strain RM11-1a, OD600, basal, 24 h (AID 1177);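 further: cultures grown under basal conditions with no added stressor; test concentration not given here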
- assay.context: OD600, 24 h, higher = more signal, called active from +8 up or from −8 down
Activity calls are given as the source filed them.
parameter: z-score

[[record]]
compound = "CCCC[C@H]1OB(O)C[C@H]2C1=C(COC)C[C@H]1C(=O)C=CC(=O)[C@H]12"
measured_result = "0.0887 (inactive)"

[[record]]
compound = "COc1ccc([Si](C)(C)[C@H]2[C@H](CCn3cc([C@H](O)c4ccccc4)nn3)O[C@@]3(C(=O)N(c4ccccc4)c4ccccc43)[C@@H]2C)cc1"
measured_result = "2.12 (inactive)"

[[record]]
compound = "C=CCC(OC(C)=O)[C@@H]1[C@@H](N(Cc2ccc(-c3cccc(C(F)(F)F)c3)o2)C(=O)Cc2ccc(F)cc2)c2cc(OCCCO)ccc2N1C(=O)c1ccc2ccccc2c1 (stereo partly specified)"
measured_result = "-0.423 (inactive)"

[[record]]
compound = "COc1ccc(CCNC(=O)[C@@]2(Sc3ccc(C)cc3)CC(=O)N(Cc3cc(C(F)(F)F)cc(C(F)(F)F)c3)[C@@H]2c2ccc(CO)cc2)cc1"
measured_result = "-0.83 (inactive)"

[[record]]
compound = "CN1C=C(C(=O)OCCS(C)(=O)=O)C(C(=O)OCCS(C)(=O)=O)=CC(CCCO)=CC1c1ccc(CN2CCCC2)cc1 (stereo unspecified)"
measured_result = "0.27 (inactive)"

[[record]]
compound = "COCC(=C=CC[C@@H](O)c1ccc(OCCO)cc1)C[C@@H](O)COCc1ccccc1"
measured_result = "-1.31 (inactive)"

[[record]]
compound = "CC(C)CNC(=O)[C@@H]1c2ccccc2C(=O)N(CC23CC4CC(CC(C4)C2)C3)[C@H]1c1ccc(CO)cc1"
measured_result = "-0.0966 (inactive)"

[[record]]
compound = "C=C(COC)/C(=C/C[C@@H](OC(C)=O)c1ccccc1OCCO)c1cc(C(=O)OC)ccc1OC"
measured_result = "0.759 (inactive)"

[[record]]
compound = "CN(C)CCCNC(=O)[C@@]1(Cc2ccccc2I)c2ccccc2C(=O)N(Cc2ccccc2)[C@H]1c1ccc(CO)cc1"
measured_result = "0.209 (inactive)"

[[record]]
compound = "CCCCCCc1nc(-c2ccc(OC)nc2)cc2c1[Si](C(C)C)(C(C)C)OC2"
measured_result = "-0.483 (inactive)"

[[record]]
compound = "CC(C)C[C@H]1NC(=O)[C@H](Cc2ccccc2)NC(=O)[C@@]23C(=O)N[C@@H](Cc4ccccc4)C2[C@H](C)[C@@]2(C)O[C@H]2C3/C=C/C/C=C\\CNC1=O (stereo partly specified)"
measured_result = "-0.711 (inactive)"

[[record]]
compound = "COC(=O)[C@H](Cc1ccc(O)cc1)N1CC2=CCCC=C[C@@H]2[C@H]1[C@H](O)Cc1ccccc1"
measured_result = "-0.889 (inactive)"

[[record]]
compound = "COC(=O)[C@@]1(Cc2ccc(OC)cc2)[C@@H]2[C@@H](CC(=O)[C@H]2CC(=O)C(=O)N2CCCC2)CN1C(=O)c1ccccc1"
measured_result = "-0.148 (inactive)"

[[record]]
compound = "N[C@@H](Cc1ccccc1)Cn1cc(C2(O)CCCCC2)nn1"
measured_result = "-0.507 (inactive)"

[[record]]
compound = "COC(=O)Cn1c(C(=O)N(C)C)cc2c1C[C@H]1CN(C(=O)c3ccccc3)[C@@](Cc3ccc(OC)cc3)(C(=O)OC)[C@@H]21"
measured_result = "0.555 (inactive)"

[[record]]
compound = "C=C(COC)C(=O)CC[C@@H](OC(C)=O)c1ccc(OCCO)cc1"
measured_result = "0.423 (inactive)"


###

# maps each entry to its composite z-score
- System: Fibrinogen (Alexa647-labelled)
- protocol.text: fibrinogen binders on compound microarrays, profiling panel, artefact control for SMM control-protein annotation, biochemical, small-molecule microarray, 635/667 nm fluorescence (AID 1131);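 further: z-score merges 667 nm fluorescence with per-spot signal-to-noise over triplicate slides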
- assay.context: fibrinogen-A647 binding fluorescence, higher = more signal
parameter: composite z-score

[[record]]
compound = "O=C1OCCC=C[C@H]2OC34C=CCN(c5ccc(Cl)cc5)C(=O)[C@H]3N(CCO)C(=O)[C@@H]4C12 (some centres undefined)"
parameter = "composite z-score"
measured_result = -0.262

[[record]]
compound = "COc1ccc(NN2C(C(O)c3cc(C(F)(F)F)cc(C(F)(F)F)c3)C=CC3C(=O)N(C4CCCCC4)C(=O)C32)cc1 (centres undefined)"
parameter = "composite z-score"
measured_result = 0.895

[[record]]
compound = "COC(=O)[C@@]1(Cc2ccc(OC)cc2)[C@H]2c3cc(C(=O)N(C)C)n(Cc4ccsc4Br)c3C[C@H]2CN1C(=O)c1ccccc1"
parameter = "composite z-score"
measured_result = 0.862

[[record]]
compound = "[N-]=[N+]=NCc1ccccc1C[C@@]1(C(=O)O)N=C(c2ccc(OCCCO)cc2)O[C@@H]1c1ccccc1CN=[N+]=[N-]"
parameter = "composite z-score"
measured_result = 0.989


###

- target.of.assay: Calmodulin-1 (Homo sapiens)
- protocol.text: CALM1 binders on microarrays, EGTA buffer, profiling panel, biochemical, small-molecule microarray, Cy5-labelled CALM1 (AID 1111);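 further: labelled calmodulin applied in Tris saline Tween buffer holding calcium plus EGTA and DTT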
- assay.context: Cy5-CALM1 binding fluorescence, higher = more signal
# maps each entry to its composite z-score
parameter: composite z-score

[[record]]
compound = "COc1ccc([Si](C)(C)[C@H]2[C@H](CCn3cc([C@H](O)c4ccccc4)nn3)O[C@@]3(C(=O)N(C)c4c(Br)cc(C)cc43)[C@@H]2C)cc1"
parameter = "composite z-score"
measured_result = 0.0287

[[record]]
compound = "COc1ccc(CCNC(=O)[C@@]2(Sc3ccc(C)cc3)CC(=O)N(Cc3cc(C(F)(F)F)cc(C(F)(F)F)c3)[C@@H]2c2ccc(CO)cc2)cc1"
parameter = "composite z-score"
measured_result = -0.615

[[record]]
compound = "CCCCC(O)C1C=CC2C(=O)NC(=O)C2N1Nc1ccc(Cl)cc1Cl (centres undefined)"
parameter = "composite z-score"
measured_result = 0.436

[[record]]
compound = "C=C(COC)C(=O)CC[C@@H](OC(=O)c1cccnc1)c1cccc(OCCO)c1"
parameter = "composite z-score"
measured_result = -0.725

